// provenance: patent US20220017630A1

- Measurement target: T1, human TNFR2 (Novoprotein, Catalog No. C830) (human, UniProt P20333 23-257, limits assumed)
- T1 construct: construct not described; also called TNFR2 protein
- T1 sequence (looked up): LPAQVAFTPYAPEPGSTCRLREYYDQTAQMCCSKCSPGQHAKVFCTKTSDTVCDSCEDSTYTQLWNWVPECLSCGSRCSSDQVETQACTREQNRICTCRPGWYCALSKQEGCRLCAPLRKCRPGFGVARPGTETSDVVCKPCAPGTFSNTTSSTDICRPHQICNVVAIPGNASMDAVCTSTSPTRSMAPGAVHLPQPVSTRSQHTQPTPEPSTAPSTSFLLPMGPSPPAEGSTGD
- Experiment notes: blocking ELISA, TNFα-biotin on coated human TNFR2; 002# OD / antibody OD x 100
Answer each item with its documented % to 002# OD (2 nM).
Give your result in % as a bare value.

Quick note, % to 002# OD (2 nM) for TNFR2 antibody #309 (antibody, V domains shown) VH: EVQLQESGAELVKPGASVKLSCKASGYTFTSYWIHWVKLRPGQGFEWIGEINPNNGGTDYNEKFKRKATLTVDKSSSTAYMELSSLTSEDSAIYYCTIDSMITTTWFAYWGQGTTVTVSS VL: EIVMTQSQKLMSTVVGDRVSVTCKASQNVGTNVAWFQQKPGQSPKALINSASYRYSGVPDRFTGSGSGTDFTLTISSVQSEDLAEYFCQQYNSYPFTFGSGTKLEIK landed at 75.9

Recorded % to 002# OD (2 nM) (binder TNFR2 antibody #365 (antibody, V domains shown) VH: EVQLQESGPGLVQPSQSLSITCTVSGFSLTSYGVHWVRQSPGKGLEWLGLIWSDGSPDYSAAFISRLSINKDNSKSQVFFKMNSLQADDTAIYYCARNDDGGDYVMDYWGQGTTVTVSS VL: EIVLTQSPALMSASPGEKVTMTCSASSSVSYMYWYQQKPRSSPKPWIYLTSNLASGVPARFSGSGSGTSYSLTISSMEAEDAATYYCQQWTSNPLTFGAGTKLEIK ): 124
